target: T1, native human ApoC3 (human, UniProt P02656 21-99, biotinylated in the captured-antigen assays (Tables 6 and 8); sites not stated); experiment: SPR, IgG captured via anti-human Fc, ApoC3 analyte 50 nM
T1 construct: also called nhuApoC3; native huApoC3
T1 sequence (P02656 21-99): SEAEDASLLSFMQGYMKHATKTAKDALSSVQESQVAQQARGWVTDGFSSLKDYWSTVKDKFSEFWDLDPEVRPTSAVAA

Binder: 5E5 WT IgG (antibody, V domains shown, Full-length IgG captured by an anti-human Fc antibody) VH: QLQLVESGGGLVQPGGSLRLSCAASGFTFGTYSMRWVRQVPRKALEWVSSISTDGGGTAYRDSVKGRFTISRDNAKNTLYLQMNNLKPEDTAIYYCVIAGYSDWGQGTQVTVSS VL: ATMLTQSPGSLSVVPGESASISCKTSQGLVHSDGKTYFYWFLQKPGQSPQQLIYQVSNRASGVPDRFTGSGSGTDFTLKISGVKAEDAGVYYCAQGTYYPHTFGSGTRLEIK
Kd / nM: 0.695

Binder: 29G11 IgG (antibody, V domains shown) VH: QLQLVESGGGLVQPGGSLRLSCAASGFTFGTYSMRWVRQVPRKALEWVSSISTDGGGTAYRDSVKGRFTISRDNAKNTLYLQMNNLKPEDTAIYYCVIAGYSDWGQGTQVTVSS VL: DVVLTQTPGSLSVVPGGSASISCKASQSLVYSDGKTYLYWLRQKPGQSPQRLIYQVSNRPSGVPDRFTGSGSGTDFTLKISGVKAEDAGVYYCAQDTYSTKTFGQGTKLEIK
Kd / nM: 4.79

Binder: 29G02 IgG (antibody, V domains shown) VH: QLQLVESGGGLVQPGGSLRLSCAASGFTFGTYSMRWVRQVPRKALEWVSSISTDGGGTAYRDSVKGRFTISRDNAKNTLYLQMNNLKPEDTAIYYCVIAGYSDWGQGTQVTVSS VL: DVVLTQTPGSLSVVPGESASISCKATQSLVHIDGKTYLYWLLQKPGQSPQRLIYQVSTRDSGVPDRFTGAGSGAEFTLKISGVKAEDAGVYYCAQDTYSTKTFGQGTKLEIK
Kd / nM: 2.31
